# test: Cytotoxicity against human HeLa cells assessed as cell viability at 387 nM after 48 hrs by MTT assay relative to control
# Assay type: cell-based
# condition.context: read-out: Activity
assay.endpoint: viability at 48 h, 0.387 µM (%)
Respond with the bare value in %.

Look up viability at 48 h, 0.387 µM for this compound: Cc1ncc([N+](=O)[O-])n1CCOc1ccc(/C=N/NC(=O)c2ccc(O)cc2)cc1
87.1

###

# test: Cytotoxicity against human HeLa cells assessed as cell viability at 490 nM after 24 hrs by MTT assay relative to control
# Assay type: cell-based
# condition.context: read-out: Activity
assay.endpoint: viability at 24 h, 0.49 µM (%)
Respond with the bare value in %.

Look up viability at 24 h, 0.49 µM for this compound: Cc1ccc(C(=O)N/N=C/c2ccc(OCCn3c([N+](=O)[O-])cnc3C)cc2)cc1
66.2

###

# test: Cytotoxicity against human HeLa cells assessed as cell viability at 370 nM after 48 hrs by MTT assay relative to control
# Type: cell-based
# condition.context: read-out: Activity
assay.endpoint: viability at 48 h, 0.37 µM (%)
Respond with the bare value in %.

Look up viability at 48 h, 0.37 µM for this compound: Cc1ncc([N+](=O)[O-])n1CCOc1ccc(/C=N/NC(=O)c2cc(O)cc(O)c2)cc1
92.1

###

# test: Cytotoxicity against human HeLa cells assessed as cell viability at 360 nM after 72 hrs by MTT assay relative to control
# Assay type: cell-based
# condition.context: read-out: Activity
assay.endpoint: viability at 72 h, 0.36 µM (%)
Respond with the bare value in %.

Look up viability at 72 h, 0.36 µM for this molecule: Cc1ncc([N+](=O)[O-])n1CCOc1ccc(/C=N/NC(=O)c2ccc([N+](=O)[O-])cc2)cc1
68.3

###

# test: Cytotoxicity against human HeLa cells assessed as cell viability at 490 nM after 48 hrs by MTT assay relative to control
# Type: cell-based
# condition.context: read-out: Activity
assay.endpoint: viability at 48 h, 0.49 µM (%)
Respond with the bare value in %.

Look up viability at 48 h, 0.49 µM for this compound: Cc1ccc(C(=O)N/N=C/c2ccc(OCCn3c([N+](=O)[O-])cnc3C)cc2)cc1
83.8

###

# Tested on: Entamoeba histolytica
# test: Antiamoebic activity against trophozoite stage of Entamoeba histolytica HM-1:IMSS after 72 hrs by microdilution method
# Format: functional, organism-based
pIC50: −log10 of the molar value.
Note to self: values exactly at 6 are condition met. So pIC50 at or above 6 is condition met, below is condition not met.

Please review the entries below; each comes with its answer.
Could you please find out whether Cc1ncc([N+](=O)[O-])n1CCOc1ccc(/C=N/NC(=O)c2ccccc2)cc1 has pIC50 that meets 6 or exceeds it?
condition not met

Also Cc1ccc(C(=O)N/N=C/c2ccc(OCCn3c([N+](=O)[O-])cnc3C)cc2)cc1 ?
condition met

Also Cc1ncc([N+](=O)[O-])n1CCOc1ccc(/C=N/NC(=O)c2ccc(N)cc2)cc1 ?
condition met

Also COc1cc(C(=O)N/N=C/c2ccc(OCCn3c([N+](=O)[O-])cnc3C)cc2)cc(OC)c1OC ?
condition not met

Next:
Could you please find out whether Cc1ncc([N+](=O)[O-])n1CCOc1ccc(/C=N/NC(=O)c2ccc([N+](=O)[O-])cc2)cc1 has pIC50 that meets 6 or exceeds it?
condition met

###

# test: Cytotoxicity against human HeLa cells assessed as cell viability at 435 nM after 24 hrs by MTT assay relative to control
# Format: cell-based
# condition.context: read-out: Activity
assay.endpoint: viability at 24 h, 0.435 µM (%)
Respond with the bare value in %.

Look up viability at 24 h, 0.435 µM for this compound: Cc1ncc([N+](=O)[O-])n1CCOc1ccc(/C=N/NC(=O)c2ccc(N)cc2)cc1
79.8

###

# test: Cytotoxicity against human HeLa cells assessed as cell viability at 490 nM after 72 hrs by MTT assay relative to control
# Format: cell-based
# condition.context: read-out: Activity
assay.endpoint: viability at 72 h, 0.49 µM (%)
Respond with the bare value in %.

Look up viability at 72 h, 0.49 µM for this molecule: Cc1ccc(C(=O)N/N=C/c2ccc(OCCn3c([N+](=O)[O-])cnc3C)cc2)cc1
50.8

###

# test: Cytotoxicity against human HeLa cells assessed as cell viability at 435 nM after 48 hrs by MTT assay relative to control
# Format: cell-based
# condition.context: read-out: Activity
assay.endpoint: viability at 48 h, 0.435 µM

Look up viability at 48 h, 0.435 µM for this molecule: Cc1ncc([N+](=O)[O-])n1CCOc1ccc(/C=N/NC(=O)c2ccc(N)cc2)cc1
80.1%

###

# test: Cytotoxicity against human HeLa cells assessed as cell viability at 360 nM after 48 hrs by MTT assay relative to control
# Type: cell-based
# condition.context: read-out: Activity
assay.endpoint: viability at 48 h, 0.36 µM
A complete answer gives the number followed by the unit.

Look up viability at 48 h, 0.36 µM for this molecule: Cc1ncc([N+](=O)[O-])n1CCOc1ccc(/C=N/NC(=O)c2ccc([N+](=O)[O-])cc2)cc1
88.9%

###

# test: Cytotoxicity against human HeLa cells assessed as cell viability at 387 nM after 72 hrs by MTT assay relative to control
# Format: cell-based
# condition.context: read-out: Activity
assay.endpoint: viability at 72 h, 0.387 µM (%)
Respond with the bare value in %.

Look up viability at 72 h, 0.387 µM for this compound: Cc1ncc([N+](=O)[O-])n1CCOc1ccc(/C=N/NC(=O)c2ccc(O)cc2)cc1
54.4

###

# test: Cytotoxicity against human HeLa cells assessed as cell viability at 208 nM after 48 hrs by MTT assay relative to control
# Assay type: cell-based
# condition.context: read-out: Activity
assay.endpoint: viability at 48 h, 0.208 µM
A complete answer gives the number followed by the unit.

Look up viability at 48 h, 0.208 µM for this compound: Cc1ncc([N+](=O)[O-])n1CCOc1ccc(/C=N/NC(=O)c2ccc(Cl)cc2)cc1
93.7%

###

# test: Cytotoxicity against human HeLa cells assessed as cell viability at 370 nM after 72 hrs by MTT assay relative to control
# Assay type: cell-based
# condition.context: read-out: Activity
assay.endpoint: viability at 72 h, 0.37 µM (%)
Respond with the bare value in %.

Look up viability at 72 h, 0.37 µM for this compound: Cc1ncc([N+](=O)[O-])n1CCOc1ccc(/C=N/NC(=O)c2cc(O)cc(O)c2)cc1
59.8

###

# test: Cytotoxicity against human HeLa cells assessed as cell viability at 387 nM after 24 hrs by MTT assay relative to control
# Assay type: cell-based
# condition.context: read-out: Activity
assay.endpoint: viability at 24 h, 0.387 µM (%)
Respond with the bare value in %.

Look up viability at 24 h, 0.387 µM for this compound: Cc1ncc([N+](=O)[O-])n1CCOc1ccc(/C=N/NC(=O)c2ccc(O)cc2)cc1
81.9

###

# test: Cytotoxicity against human HeLa cells assessed as cell viability at 435 nM after 72 hrs by MTT assay relative to control
# Format: cell-based
# condition.context: read-out: Activity
assay.endpoint: viability at 72 h, 0.435 µM (%)
Respond with the bare value in %.

Look up viability at 72 h, 0.435 µM for this molecule: Cc1ncc([N+](=O)[O-])n1CCOc1ccc(/C=N/NC(=O)c2ccc(N)cc2)cc1
60.3

###

# test: Cytotoxicity against human HeLa cells assessed as cell viability at 208 nM after 72 hrs by MTT assay relative to control
# Assay type: cell-based
# condition.context: read-out: Activity
assay.endpoint: viability at 72 h, 0.208 µM

Look up viability at 72 h, 0.208 µM for this molecule: Cc1ncc([N+](=O)[O-])n1CCOc1ccc(/C=N/NC(=O)c2ccc(Cl)cc2)cc1
65.9%
